Assignment: determine reported INHIBITION for the given compounds.
# System: Plasmodium berghei
# assay overview: Screen against P. berghei liver stage (PbLuc), transformed with Luciferase, at 2uM
# Assay type: functional, HepG2
# test context: tested at 2 uM
Among all 68,000 compounds or so, about 2,700 (4%) showed an effect of 50% or more. Only a selection was taken, and strong results are over-represented in it overall.
One number for each entry, in %.

compound | reading unit | test result
Cc1ccc(-c2cc(C)nc(C3CCCN3S(C)(=O)=O)n2)cc1 (stereo unspecified) | % | 16.87
CCOc1ccc(C(=O)Nc2c(C)nc3ccc(Cl)cn3c2=O)cc1 | % | 27
CCn1cc(NC(=O)C2CCN(Cc3nc(C)c(C)s3)CC2)cn1 | % | -3.36
CSCCCN1C(=O)CC[C@H]2CN(Cc3ncc[nH]3)CC[C@H]21 | % | 27.5
O=C(N1CCCC(n2cncn2)C1)C1(c2ccccc2F)CCCC1 (stereo unspecified) | % | -15.28
Cc1nc(C(=O)N2CCOC(Cc3ccc(F)cc3)C2)co1 (stereo unspecified) | % | 51.45

Hello, I would appreciate it if you could give INHIBITION for each entry below.
1. Cn1cc(CN2CCC[C@]3(C[C@H](Oc4ncccc4F)CO3)C2)cn1
2. COC(=O)c1cccc(C(=O)N2CCN(c3cc(Cl)ccc3C)CC2)n1
3. COc1ccc(CCN2C(=O)O[C@@H]3CN(C)C[C@@H]32)cc1
4. COc1ccc(CC2CN(C(=O)c3coc(C)n3)CCO2)cc1 (stereo unspecified)
5. CCCN(CC(=O)OC)C(=O)c1sc(C)nc1C

A)
1: 20.01; 2: 18.76; 3: -7.29; 4: -10.03; 5: -1.29

// each listed compound needs a value for INHIBITION
1. CNS(=O)(=O)c1ccsc1C(=O)OC
2. O=C(CCN1C[C@@H]2CC[C@H]1CN(c1ncccn1)C2)NCc1ccco1

A)
[-12.44, 22.27]
